Biological target: PDK1/PDHK1 (Homo sapiens, UniProt Q15118)
Construct: purchased Reaction Biology Corp
Sequence (Q15118 29-436): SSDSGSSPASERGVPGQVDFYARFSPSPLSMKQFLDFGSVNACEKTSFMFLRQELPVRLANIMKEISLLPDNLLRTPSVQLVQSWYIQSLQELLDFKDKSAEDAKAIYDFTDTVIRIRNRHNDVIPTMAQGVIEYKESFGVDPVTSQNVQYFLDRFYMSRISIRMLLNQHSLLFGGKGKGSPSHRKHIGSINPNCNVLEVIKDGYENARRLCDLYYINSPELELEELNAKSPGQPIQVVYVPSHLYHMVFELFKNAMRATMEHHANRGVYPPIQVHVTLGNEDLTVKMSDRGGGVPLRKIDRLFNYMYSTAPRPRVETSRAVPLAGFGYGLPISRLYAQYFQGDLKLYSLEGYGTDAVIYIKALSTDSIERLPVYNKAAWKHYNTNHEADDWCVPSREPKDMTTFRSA
Test: Kinase panel assay (radiolabelled)
Format: biochemical
Details: control GW5074
MEASUREMENT_LABEL: IC50 (µM)
Give your result in µM as a bare value.

API: value(readout= IC50, system= PDK1/PDHK1 (Homo sapiens, UniProt Q15118), query= O=C1Nc2ccc(I)cc2/C1=C/c1cc(Br)c(O)c(Br)c1 [GW5074, reference compound] )
12.1

###

As shown below, each of these molecules has a reported viability at 24 h, 1 µM value.
Experiment: MTT cell viability assay
Format: cell-based, murine
Settings: mouse, BV-2 microglia cells (LPS-activated), 1 μM compound, mean ± SD
Give your result in % as a bare value.

Before answering, review these 3 worked examples.
O=C1C=CC2(C=C1)OCC(Cc1cn(-c3ccccc3)nn1)C(=O)N2c1ccccc1 (stereo not shown)	92.9
O=C1C=CC2(C=C1)OCC(Cc1cn(-c3cccc(Cc4ccccc4)c3)nn1)C(=O)N2c1ccccc1 (stereo not shown)	107
O=C1C=CC2(C=C1)OCC(Cc1cn(-c3ccc(Br)cc3)nn1)C(=O)N2c1ccccc1 (stereo not shown)	106

# query: viability at 24 h, 1 µM of entry O=C1C=CC2(C=C1)OCC(Cc1cn(-c3cccc(Cl)c3)nn1)C(=O)N2c1ccccc1 (stereo not shown)
112

# query: viability at 24 h, 1 µM of entry O=C1C=CC2(C=C1)OCC(Cc1ccccc1)C(=O)N2c1ccccc1 (stereo not shown)
95

# query: viability at 24 h, 1 µM of entry [H]/N=C(/NC)NCCC[C@H](N)C(=O)O [L-NMMA, NG-mono-methyl-L-arginine, reference compound]
101

# query: viability at 24 h, 1 µM of entry O=C1C=CC2(C=C1)OCC(Cc1cn(Cc3ccccc3)nn1)C(=O)N2c1ccccc1 (stereo not shown)
101

Just for reference, paper PMC7719162 is where these values come from.
